experimental-system: Cholinesterase (Equus caballus, UniProt P81908)
Sequence (P81908 whole entry): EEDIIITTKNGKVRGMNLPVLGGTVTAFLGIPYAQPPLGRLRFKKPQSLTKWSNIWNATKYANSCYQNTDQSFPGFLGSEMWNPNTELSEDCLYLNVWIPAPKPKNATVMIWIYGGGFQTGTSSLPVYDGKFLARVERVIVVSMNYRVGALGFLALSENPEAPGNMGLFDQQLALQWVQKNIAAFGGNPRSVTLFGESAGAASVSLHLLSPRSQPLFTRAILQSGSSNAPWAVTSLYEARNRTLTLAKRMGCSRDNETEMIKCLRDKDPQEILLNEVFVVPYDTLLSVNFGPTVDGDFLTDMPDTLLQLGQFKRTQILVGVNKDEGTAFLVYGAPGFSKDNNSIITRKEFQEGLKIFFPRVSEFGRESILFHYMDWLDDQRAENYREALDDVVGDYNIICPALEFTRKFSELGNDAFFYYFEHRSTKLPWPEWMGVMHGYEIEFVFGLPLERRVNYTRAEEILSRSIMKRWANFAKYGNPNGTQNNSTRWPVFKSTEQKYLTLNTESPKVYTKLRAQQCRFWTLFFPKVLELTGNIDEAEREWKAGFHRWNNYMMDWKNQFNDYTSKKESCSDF
method-summary: Mixed-type inhibition of equine BChE using S-butyrylthiocholine chloride as substrate assessed as free enzyme by Lineweaver-Burk reciprocal plot method
recorded-endpoint: Ki (µM)
Give bare numbers, in µM.

Checklist item: Ki tested on Cholinesterase (Equus caballus, UniProt P81908), entry Oc1ccc(-c2cc3cccc(Cl)c3o2)cc1 , value?
5

----------
What follows is a collection of IC50 values obtained with UniProtKB P81908.

- smiles-notation: "c1ccc(-c2cc3ccccc3o2)cc1"
  IC50: "> 100 µM"
- smiles-notation: "Oc1ccc(-c2cc3cc(Cl)ccc3o2)cc1"
  IC50: "> 100 µM"
- smiles-notation: "Oc1ccc(-c2cc3cccc(Cl)c3o2)cc1"
  IC50: "30.3 µM"
- smiles-notation: "Cc1cccc2cc(-c3ccc(O)cc3)oc12"
  IC50: "77 µM"
- smiles-notation: "Cc1ccc2oc(-c3ccc(O)cc3)cc2c1"
  IC50: "> 100 µM"

For every record below, what is its IC50?
1. Brc1cccc2cc(-c3ccccc3)oc12
2. Oc1ccc(-c2cc3ccccc3o2)cc1
3. COc1ccc(-c2cc3ccccc3o2)cc1
4. Oc1ccc(-c2cc3cccc(Br)c3o2)cc1
5. COc1ccc(-c2cc3cccc(Cl)c3o2)cc1

1: > 100 µM; 2: > 100 µM; 3: > 100 µM; 4: 82.5 µM; 5: > 100 µM

UniProtKB P81908 / IC50 / Oc1ccc(-c2cc3cc(Br)ccc3o2)cc1 : value?
> 100 µM

The origin of these recorded values is ChEMBL document CHEMBL3792316.
